B1: glmS ribozyme (parent)
chain: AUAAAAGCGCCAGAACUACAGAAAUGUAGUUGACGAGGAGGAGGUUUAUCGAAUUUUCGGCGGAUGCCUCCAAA

Variants of: B1
Experiment: self-cleavage kobs at 40 uM GlcN6P; higher = faster cleavage; RNA array
Details: with glucosamine-6-phosphate
This sample holds only a part of the variants without activity.
value-kind: self-cleavage kobs at 40 uM GlcN6P

Some solved cases for reference:
mutant-code	self-cleavage kobs at 40 uM GlcN6P
A6G G44U G62U G63A U69A	< 1e-05 s⁻¹
G38A C68A	< 1e-05 s⁻¹
C16G C34G C50A A64G	< 1e-05 s⁻¹
G29A C67U	4.43e-05 s⁻¹
A42G G60U C68G	< 1e-05 s⁻¹
G9C C10A U56A	< 1e-05 s⁻¹
G9A C11G	< 1e-05 s⁻¹
C10A A33C	< 1e-05 s⁻¹
A36U U49C	< 1e-05 s⁻¹
A33U G37U C50G U69A	8.34e-05 s⁻¹

Asked: Tell us which self-cleavage kobs at 40 uM GlcN6P value is on record for C8G G32C G62U
Given back: < 1e-05 s⁻¹

Asked: Tell us which self-cleavage kobs at 40 uM GlcN6P value is on record for G41C C67G
Given back: < 1e-05 s⁻¹

Asked: Tell us which self-cleavage kobs at 40 uM GlcN6P value is on record for G38C G41A
Given back: < 1e-05 s⁻¹

Asked: Tell us which self-cleavage kobs at 40 uM GlcN6P value is on record for C10U U65A
Given back: < 1e-05 s⁻¹

Asked: Tell us which self-cleavage kobs at 40 uM GlcN6P value is on record for A64C C67G
Given back: < 1e-05 s⁻¹

Asked: Tell us which self-cleavage kobs at 40 uM GlcN6P value is on record for G7U U31A
Given back: < 1e-05 s⁻¹

Asked: Tell us which self-cleavage kobs at 40 uM GlcN6P value is on record for G35C U57A
Given back: < 1e-05 s⁻¹

Asked: Tell us which self-cleavage kobs at 40 uM GlcN6P value is on record for U46A G62A
Given back: < 1e-05 s⁻¹

Asked: Tell us which self-cleavage kobs at 40 uM GlcN6P value is on record for U30G A36G C71G
Given back: < 1e-05 s⁻¹

Asked: Tell us which self-cleavage kobs at 40 uM GlcN6P value is on record for A15U G62A
Given back: < 1e-05 s⁻¹

Asked: Tell us which self-cleavage kobs at 40 uM GlcN6P value is on record for C10A G60A
Given back: < 1e-05 s⁻¹

Asked: Tell us which self-cleavage kobs at 40 uM GlcN6P value is on record for G7C U31G G43A U55G C68U
Given back: < 1e-05 s⁻¹

Asked: Tell us which self-cleavage kobs at 40 uM GlcN6P value is on record for U54G C68G
Given back: 2.37e-05 s⁻¹

Asked: Tell us which self-cleavage kobs at 40 uM GlcN6P value is on record for C11G A15C
Given back: < 1e-05 s⁻¹

Asked: Tell us which self-cleavage kobs at 40 uM GlcN6P value is on record for A15G C67U
Given back: 0.000329 s⁻¹

Asked: Tell us which self-cleavage kobs at 40 uM GlcN6P value is on record for C58G C68G
Given back: 3.25e-05 s⁻¹

Asked: Tell us which self-cleavage kobs at 40 uM GlcN6P value is on record for G7C G40A
Given back: < 1e-05 s⁻¹

Asked: Tell us which self-cleavage kobs at 40 uM GlcN6P value is on record for A12G A53U C58U
Given back: < 1e-05 s⁻¹

Asked: Tell us which self-cleavage kobs at 40 uM GlcN6P value is on record for C10U C16G G35C A42U U57G G59A
Given back: < 1e-05 s⁻¹

Asked: Tell us which self-cleavage kobs at 40 uM GlcN6P value is on record for C61G C71U
Given back: < 1e-05 s⁻¹

Asked: Tell us which self-cleavage kobs at 40 uM GlcN6P value is on record for C8G G43A G59A G60U
Given back: < 1e-05 s⁻¹

Asked: Tell us which self-cleavage kobs at 40 uM GlcN6P value is on record for G59A G63U
Given back: < 1e-05 s⁻¹
